Values compiled from patent US11173151B2.

biological target: human V1a receptor (Homo sapiens); test: Cellular in vitro assay for determining vasopressin receptor activity, V1a receptor cell line (CHO, aequorin luminescence); details: CHO cell line transfected with human V1a receptor; [Arg]-vasopressin at EC50 concentration; read-out: IC50 hV1a
We label by threshold. Values of IC50 strictly beneath 10 nM are 1. Values of 10 nM and up are -1.

These recorded examples may help you get a feel for the data.
{"columns": ["Compound", "Assayed target", "Category"],
 "data": [
  ["O=C(Nc1ncccc1-n1cnc(Cn2nc(-c3ccc(Cl)cc3)n(C[C@H](O)C(F)(F)F)c2=O)n1)C1CCCCCC1 [Example 156]", "human V1a receptor (Homo sapiens)", -1],
  ["N[C@H]1CCCC[C@@H]1NC(=O)c1ccccc1-n1cnc(Cn2nc(-c3ccc(Cl)cc3)n(C[C@H](O)C(F)(F)F)c2=O)n1 [Example 233]", "human V1a receptor (Homo sapiens)", -1],
  ["O=C(NCC1CC1)c1cccnc1-n1cnc(Cn2nc(-c3ccc(Cl)cc3)n(C[C@H](O)C(F)(F)F)c2=O)n1 [Example 499]", "human V1a receptor (Homo sapiens)", -1],
  ["O=C(NCCF)c1ccccc1-n1cnc(Cn2nc(-c3ccc(Cl)cc3)n(C[C@H](O)C(F)(F)F)c2=O)n1 [Example 241]", "human V1a receptor (Homo sapiens)", 1]
]}

Consider the compound O=C(c1ncccc1-n1cnc(Cn2nc(-c3ccc(Cl)cc3)n(C[C@H](O)C(F)(F)F)c2=O)n1)N1CCOC(C(F)(F)F)C1 (mixture of isomers) [Example 444] . Is its IC50 strictly less than 10 nM?
-1

Lab note: confirm whether the reported IC50 for this compound is below 10 nM, equality not counting. compound: O=C(c1ncccc1-n1cnc(Cn2nc(-c3ccc(Cl)cc3)n(C[C@@H](O)C(F)(F)F)c2=O)n1)N1CCNC(C(F)(F)F)C1 (mixture of isomers) [Example 476]
-1

# check: IC50 < 10 nM for CC1=C(C)CN(C(=O)c2ccccc2-n2cnc(Cn3nc(-c4ccc(Cl)cc4)n(C[C@H](O)C(F)(F)F)c3=O)n2)CC1 [Example 260]
-1

Given the entry CCN(OC)C(=O)c1ccccc1-n1cnc(Cn2nc(-c3ccc(Cl)cc3)n(C[C@H](O)C(F)(F)F)c2=O)n1 [Example 261] , would its reported IC50 be below 10 nM?
1

###

biological target: human V1a receptor (Homo sapiens, UniProt P37288); construct: expressed in transfected cells; host or cells: CHO K1 (ATCC), also stably transfected with a modified aequorin; assay: Cellular in vitro assay for determining vasopressin receptor activity, V1a receptor cell line (CHO, aequorin luminescence); format: cell-based; details: selectivity ratio IC50 hV2 / IC50 hV1a
Sequence (P37288 whole entry): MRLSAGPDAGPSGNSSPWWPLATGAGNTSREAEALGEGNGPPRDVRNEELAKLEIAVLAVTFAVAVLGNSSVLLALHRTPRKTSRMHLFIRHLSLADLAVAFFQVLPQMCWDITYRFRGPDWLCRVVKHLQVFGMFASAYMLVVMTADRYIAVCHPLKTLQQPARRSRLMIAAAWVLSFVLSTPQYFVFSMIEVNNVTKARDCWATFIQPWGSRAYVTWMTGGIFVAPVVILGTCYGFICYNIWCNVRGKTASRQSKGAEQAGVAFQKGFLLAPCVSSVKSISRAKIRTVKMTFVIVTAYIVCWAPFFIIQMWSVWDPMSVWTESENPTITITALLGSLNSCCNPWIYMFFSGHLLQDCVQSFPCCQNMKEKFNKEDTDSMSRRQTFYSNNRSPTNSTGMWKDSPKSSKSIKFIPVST
Please provide measured ratio IC50 hV2/hV1a for the entries that follow.
Answers are plain numbers.

The following compounds have reported results that may help.
{"columns": ["Compound", "Endpoint value"],
 "data": [
  ["O=C(Nc1cccnc1-n1cnc(Cn2nc(-c3ccc(Cl)cc3)n(C[C@H](O)C(F)(F)F)c2=O)n1)C1(F)CC1 [Example 57]", 38.7],
  ["CCN1CCN(C(=O)c2ccccc2-n2cnc(Cn3nc(-c4ccc(Cl)cc4)n(C[C@H](O)C(F)(F)F)c3=O)n2)CC1 [Example 358]", 152.8],
  ["O=C(NC1CC(F)(F)C1)c1cccc(C(F)(F)F)c1-n1cnc(Cn2nc(-c3ccc(Cl)cc3)n(C[C@H](O)C(F)(F)F)c2=O)n1 [Example 417]", 8.4],
  ["CC1CCCC(C)N1C(=O)c1ccccc1-n1cnc(Cn2nc(-c3ccc(Cl)cc3)n(C[C@H](O)C(F)(F)F)c2=O)n1 (mixture of isomers) [Example 337]", 46.2],
  ["NC1(CNc2ccncc2-n2cnc(Cn3nc(-c4ccc(Cl)cc4)n(C[C@H](O)C(F)(F)F)c3=O)n2)CC1 [Example 3]", 0.6]
]}

Data request, read-out ratio IC50 hV2/hV1a, for Nc1cccc(NC(=O)c2ccccc2-n2cnc(Cn3nc(-c4ccc(Cl)cc4)n(C[C@H](O)C(F)(F)F)c3=O)n2)n1 [Example 312]
19.7
